- protocol.details: chemical genetic growth profiling, strain panel (AID 1159580);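 also: tested at 20 µM; growth read once vehicle control cultures reached saturation at 30 °C; 1 = growth at the plate median or of vehicle wells; lower values mean less growth of the strain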
- applied.conditions: S. cerevisiae deletion strains, growth OD, locus YMR231W, strain pep5, stronger effect = lower value
Hit rate of the full screen: of about 5,500 compounds, about 2,000 (36%) were called active. Inconclusive results (about 18%) are left out. The list shows a part of the results.
readout.type: normalized growth
Give bare numbers.

Sample answers from the record:
compound: NC(=O)c1ccc[n+]([C@@H]2O[C@H](COP(=O)([O-])OP(=O)(O)OC[C@H]3O[C@@H](n4cnc5c(N)ncnc54)[C@H](O)[C@@H]3O)[C@@H](O)[C@H]2O)c1
readout.type: normalized growth
value.observed: 1.04
--
compound: CC(=O)OCC[N+](C)(C)C
readout.type: normalized growth
value.observed: 0.993
--
compound: CC1=C(C/C=C(\C)CCC[C@H](C)CCC[C@H](C)CCCC(C)C)C(=O)c2ccccc2C1=O
readout.type: normalized growth
value.observed: 0.99
--
compound: NCCSSCCN
readout.type: normalized growth
value.observed: 1

Query string: Note down normalized growth recorded for CC(C[N+](C)(C)C)OC(N)=O (stereo not given)
Result string: 1.02
